# Test system: tubulin
# test_method_notes: Tubulin polymerisation inhibitor (TPI) assay
# Format: biochemical
# condition_set: concentration required to inhibit the extent of tubulin polymerisation by 50%
readout_label: IC50

State its IC50 on tubulin: COc1ccc(-c2oc3[nH]c(=O)ncc3c2-c2cc(OC)c(OC)c(OC)c2)cc1 [Example 1]
2 µM

Field: IC50 (tubulin). Entry: COc1ccc(-c2oc3[nH]c(=O)ncc3c2C(=O)c2cc(OC)c(OC)c(OC)c2)cc1 [Example 13]
> 40 µM

Request: IC50, test system tubulin, entry COc1ccc(-c2oc3nc(OC)ncc3c2-c2cc(OC)c(OC)c(OC)c2)cc1 [Example 17]
> 40 µM

Write down the reported IC50 of COc1ccc(-c2sc3nc(OC)ncc3c2C(=O)c2cc(OC)c(OC)c(OC)c2)cc1 [Example 19] , test system: tubulin.
> 40 µM

For the record COc1ccc(-c2oc3c(cnc(=O)n3C)c2C(=O)c2cc(OC)c(OC)c(OC)c2)cc1 [Example 15] , what value of IC50 is listed for tubulin?
> 40 µM

Please provide the recorded IC50 for COc1ccc(-c2oc3nc(OC)ccc3c2C(=O)c2cc(OC)c(OC)c(OC)c2)cc1 [Example 20] , tested on tubulin.
~2 µM

Request body: readout IC50, system tubulin, query COc1ccc(-c2oc3nc(Cl)ncc3c2-c2cc(OC)c(OC)c(OC)c2)cc1 [Example 16] . Return the value.
10 to 40 µM

Give IC50 (tubulin) of the following molecule: COc1ccc(-c2sc3nc(SC)ncc3c2C(=O)c2cc(OC)c(OC)c(OC)c2)cc1 [Example 18]
> 40 µM

// map COc1ccc(-c2oc3cc(OC)cnc3c2C(=O)c2cc(OC)c(OC)c(OC)c2)cc1 [Example 22] to recorded IC50 (system: tubulin)
< 4 µM

Please state recorded IC50 (tested on tubulin) of COc1ccc(-c2oc3nc(OC)ccc3c2-c2cc(OC)c(OC)c(OC)c2)cc1 [Example 21]
> 40 µM

Reference source: patent US8466163B2
